# Subject of test: TOP2A (topoisomerase IIα) (Homo sapiens)
# Sequence (P11388 whole entry): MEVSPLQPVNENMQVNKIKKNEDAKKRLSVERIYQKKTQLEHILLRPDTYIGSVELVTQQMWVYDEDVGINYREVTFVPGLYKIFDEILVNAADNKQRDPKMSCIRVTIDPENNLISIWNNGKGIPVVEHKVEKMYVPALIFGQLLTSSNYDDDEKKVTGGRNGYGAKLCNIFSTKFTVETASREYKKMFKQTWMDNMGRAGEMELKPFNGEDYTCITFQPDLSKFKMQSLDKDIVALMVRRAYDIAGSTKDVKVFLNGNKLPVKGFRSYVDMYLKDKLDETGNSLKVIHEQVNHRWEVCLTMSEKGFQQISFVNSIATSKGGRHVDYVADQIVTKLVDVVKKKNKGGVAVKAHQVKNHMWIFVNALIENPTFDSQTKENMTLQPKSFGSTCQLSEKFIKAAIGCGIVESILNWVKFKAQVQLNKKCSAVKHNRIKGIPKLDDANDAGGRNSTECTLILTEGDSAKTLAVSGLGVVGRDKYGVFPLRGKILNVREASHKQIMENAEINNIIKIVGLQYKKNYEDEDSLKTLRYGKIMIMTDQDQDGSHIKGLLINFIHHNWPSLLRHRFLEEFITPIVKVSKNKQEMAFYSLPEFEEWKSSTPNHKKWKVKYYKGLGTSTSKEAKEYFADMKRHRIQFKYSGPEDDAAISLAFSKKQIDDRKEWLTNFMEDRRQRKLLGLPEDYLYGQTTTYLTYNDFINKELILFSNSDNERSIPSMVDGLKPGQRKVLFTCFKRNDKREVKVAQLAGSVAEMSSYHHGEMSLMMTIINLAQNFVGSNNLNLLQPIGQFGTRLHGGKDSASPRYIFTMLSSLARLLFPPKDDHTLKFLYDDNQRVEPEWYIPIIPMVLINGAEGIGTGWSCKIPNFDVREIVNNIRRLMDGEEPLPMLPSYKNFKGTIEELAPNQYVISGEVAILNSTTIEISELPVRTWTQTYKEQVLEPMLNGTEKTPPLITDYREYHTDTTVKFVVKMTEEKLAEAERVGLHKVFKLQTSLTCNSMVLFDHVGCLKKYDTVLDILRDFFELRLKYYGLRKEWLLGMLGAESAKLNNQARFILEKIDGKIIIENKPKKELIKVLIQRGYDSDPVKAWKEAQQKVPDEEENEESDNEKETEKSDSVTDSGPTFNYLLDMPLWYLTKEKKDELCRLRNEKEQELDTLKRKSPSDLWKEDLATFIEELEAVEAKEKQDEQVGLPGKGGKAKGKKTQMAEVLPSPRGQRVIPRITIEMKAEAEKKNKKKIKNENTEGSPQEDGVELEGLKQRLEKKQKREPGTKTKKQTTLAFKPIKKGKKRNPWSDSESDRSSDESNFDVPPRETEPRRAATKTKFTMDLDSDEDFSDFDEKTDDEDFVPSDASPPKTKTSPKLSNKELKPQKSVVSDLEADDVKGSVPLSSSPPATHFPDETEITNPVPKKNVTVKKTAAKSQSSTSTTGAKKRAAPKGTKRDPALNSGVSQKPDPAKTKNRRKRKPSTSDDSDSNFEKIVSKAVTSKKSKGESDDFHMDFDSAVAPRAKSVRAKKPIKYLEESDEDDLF
# Procedure summary: kDNA decatenation assay with recombinant enzyme
Reported endpoint: IC50

1) CC(Oc1ccc(Oc2cnc3ccc(Cl)cc3n2)cc1)C(=O)O (racemic)
~130 µM

Next item in the queue.
Specify IC50 for `C[C@@H](CN1CC(=O)NC(=O)C1)N1CC(=O)NC(=O)C1` and stop.
~60 µM

====

# Subject of test: TOP2B (topoisomerase IIβ) (Homo sapiens, UniProt Q02880)
# Sequence (Q02880 2-1626): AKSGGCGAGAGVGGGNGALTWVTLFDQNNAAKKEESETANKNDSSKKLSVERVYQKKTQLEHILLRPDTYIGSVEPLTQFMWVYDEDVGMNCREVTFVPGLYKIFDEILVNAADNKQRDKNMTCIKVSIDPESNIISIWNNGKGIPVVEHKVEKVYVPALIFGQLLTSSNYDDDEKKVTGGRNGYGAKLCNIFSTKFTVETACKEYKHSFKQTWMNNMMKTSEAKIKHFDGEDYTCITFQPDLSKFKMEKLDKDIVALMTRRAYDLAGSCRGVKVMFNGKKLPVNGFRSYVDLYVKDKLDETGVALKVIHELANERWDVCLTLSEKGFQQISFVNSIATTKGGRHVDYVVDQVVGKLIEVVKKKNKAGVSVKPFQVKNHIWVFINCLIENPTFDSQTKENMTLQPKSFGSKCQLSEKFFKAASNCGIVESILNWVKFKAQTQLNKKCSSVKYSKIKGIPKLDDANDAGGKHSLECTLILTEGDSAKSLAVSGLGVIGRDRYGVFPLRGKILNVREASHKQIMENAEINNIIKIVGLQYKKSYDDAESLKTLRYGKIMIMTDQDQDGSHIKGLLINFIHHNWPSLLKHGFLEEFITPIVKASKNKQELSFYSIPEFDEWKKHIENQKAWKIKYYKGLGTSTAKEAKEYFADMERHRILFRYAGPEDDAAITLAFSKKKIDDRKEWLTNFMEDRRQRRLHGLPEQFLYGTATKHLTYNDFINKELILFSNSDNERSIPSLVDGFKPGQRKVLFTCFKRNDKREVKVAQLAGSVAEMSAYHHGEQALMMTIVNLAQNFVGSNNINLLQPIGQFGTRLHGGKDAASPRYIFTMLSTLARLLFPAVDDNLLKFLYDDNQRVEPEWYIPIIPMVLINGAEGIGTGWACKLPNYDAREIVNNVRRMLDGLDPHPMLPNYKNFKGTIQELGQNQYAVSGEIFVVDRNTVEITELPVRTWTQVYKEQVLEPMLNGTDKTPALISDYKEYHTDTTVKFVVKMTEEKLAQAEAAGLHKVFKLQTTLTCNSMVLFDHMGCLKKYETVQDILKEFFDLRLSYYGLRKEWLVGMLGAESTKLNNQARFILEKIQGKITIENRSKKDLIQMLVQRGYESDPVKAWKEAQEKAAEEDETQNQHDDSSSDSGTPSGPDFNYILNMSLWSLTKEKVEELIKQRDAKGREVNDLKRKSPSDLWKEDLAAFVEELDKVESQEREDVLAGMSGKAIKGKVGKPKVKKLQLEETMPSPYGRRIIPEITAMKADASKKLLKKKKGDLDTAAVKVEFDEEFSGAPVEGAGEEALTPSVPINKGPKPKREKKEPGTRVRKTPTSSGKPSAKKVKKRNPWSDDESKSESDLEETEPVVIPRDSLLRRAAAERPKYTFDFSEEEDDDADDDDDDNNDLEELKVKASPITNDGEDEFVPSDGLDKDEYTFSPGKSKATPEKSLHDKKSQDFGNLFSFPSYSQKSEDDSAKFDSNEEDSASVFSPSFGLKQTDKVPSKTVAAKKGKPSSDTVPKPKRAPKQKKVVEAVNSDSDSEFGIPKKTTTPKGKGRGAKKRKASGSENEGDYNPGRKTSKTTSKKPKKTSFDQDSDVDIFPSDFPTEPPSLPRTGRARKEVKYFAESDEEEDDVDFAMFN
# Procedure summary: kDNA decatenation assay with recombinant enzyme
Reported endpoint: IC50

Specify IC50 for CC(Oc1ccc(Oc2cnc3ccc(Cl)cc3n2)cc1)C(=O)O (racemic) [XK469] and stop.
~130 µM

Specify IC50 for C[C@@H](CN1CC(=O)NC(=O)C1)N1CC(=O)NC(=O)C1 [DEX, dexrazoxane] and stop.
~60 µM
